Data provenance is PubChem BioAssay (Tox21).

experiment: Caspase-3/7 induction in CHO-K1 cells by small molecules, qHTS cell viability counter screen (AID 1346979); conditions: CellTiter-Fluor fluorescence, 17 h; series mostly up to 92.4 µM; further: nearly all actives have a fitted effect of over 35% in size
Records with an inconclusive call do not appear. Activity calls are given as the source filed them. The call rests on the fitted dose curve; in most records, active means well fitted cell-killing curve with a large enough effect in the repeat runs; inconclusive means weak or mixed curves, or effect the other way; inactive means no such curve, though single readings can be large or run the other way.
# output must be one of 1.0 (active), 0.0 (inactive)

CC(C)(O)CCc1ccccc1	0.0
CCOC(=O)C(C)O (stereo unspecified)	0.0
ClC1=C(Cl)C1(Cl)Cl	0.0
NC(=O)c1ccccc1[N+](=O)[O-]	0.0
O=C1OC[C@H](Cc2cccc(O)c2)[C@H]1Cc1cccc(O)c1	0.0
CCCCCCCCCCCSCC(=O)O	0.0
O=NN(CCCl)C(=O)NCCCl	0.0
CCCCCCOC(=O)CCCCC	0.0

Outcome? `Cc1ccc(S(=O)(=O)NC(=O)NC2CCCCC2)cc1`
0.0

Outcome? COC(=O)C1=C(C)NC(C)=C(C(=O)OC(C)(C)CN(C)CCC(c2ccccc2)c2ccccc2)C1c1cccc([N+](=O)[O-])c1 (stereo unspecified)
1.0

Outcome? CC(C(=O)O)c1ccc(C(=O)c2cccs2)cc1 (stereo unspecified)
0.0

====

test: qHTS assay to identify small molecule antagonists of the thyroid receptor (TR) signaling pathway (AID 743065); details: GH3.TRE-Luc, T3-stimulated luciferase inhibition, 23.5 h; series mostly up to 70.3 µM; further: potency means the concentration at half of the fitted maximal effect; nearly all actives have a fitted effect of over 55% in size
Inconclusive results are not listed. Activity calls are given as the source filed them. Calls come from the whole dose curve; as a rule, active = well fitted inhibition curve with a large enough effect in the repeat runs; inconclusive = weak or mixed curves; inactive = no such curve, though single readings can be large or run the other way.
Reported Potency values for the following molecules.

Nc1nc2ccc(OC(F)(F)F)cc2s1	21.1 µM (active)

Now for the molecule whose Potency we want.
// sample `CCN(Cc1cccc(S(=O)(=O)O)c1)c1ccc(C(=C2C=CC(=[N+](CC)Cc3cccc(S(=O)(=O)O)c3)C=C2)c2ccccc2S(=O)(=O)[O-])cc1` , its Potency was 15.4 µM (active)

====

molecular target: Glucocorticoid receptor (Homo sapiens) (UniProt P04150); experiment: qHTS assay to identify small molecule antagonists of the glucocorticoid receptor (GR) signaling pathway (AID 720692); conditions: GR-bla HeLa, beta-lactamase FRET ratio, dexamethasone-stimulated, 18 h; series mostly up to 58.5 µM; further: potency means the concentration at half of the fitted maximal effect
Sequence (P04150 whole entry, looked up): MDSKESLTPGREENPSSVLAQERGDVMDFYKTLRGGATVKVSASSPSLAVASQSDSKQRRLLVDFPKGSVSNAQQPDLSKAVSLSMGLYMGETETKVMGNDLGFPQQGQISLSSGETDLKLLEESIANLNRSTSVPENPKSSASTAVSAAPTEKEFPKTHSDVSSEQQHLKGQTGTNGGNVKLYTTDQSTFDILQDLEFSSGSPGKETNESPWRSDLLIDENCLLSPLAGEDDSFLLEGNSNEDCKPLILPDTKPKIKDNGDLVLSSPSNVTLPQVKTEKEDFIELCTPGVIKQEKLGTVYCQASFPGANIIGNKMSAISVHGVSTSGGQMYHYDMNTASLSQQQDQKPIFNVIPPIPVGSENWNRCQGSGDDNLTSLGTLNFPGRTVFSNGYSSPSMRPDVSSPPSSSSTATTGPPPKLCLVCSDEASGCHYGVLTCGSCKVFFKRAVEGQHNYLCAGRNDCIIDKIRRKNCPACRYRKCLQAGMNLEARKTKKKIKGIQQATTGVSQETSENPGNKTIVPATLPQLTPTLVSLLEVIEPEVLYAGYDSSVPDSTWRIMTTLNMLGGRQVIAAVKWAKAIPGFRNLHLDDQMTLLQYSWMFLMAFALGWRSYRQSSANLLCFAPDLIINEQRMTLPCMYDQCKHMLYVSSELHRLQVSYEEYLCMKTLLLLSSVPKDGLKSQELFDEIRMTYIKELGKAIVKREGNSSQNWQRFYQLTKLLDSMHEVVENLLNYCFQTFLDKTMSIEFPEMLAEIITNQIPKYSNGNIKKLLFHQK
Results filed as inconclusive are left out. Active and inactive are the calls of the source. Calls follow the shape of the dose curve; as a rule, active = well fitted inhibition curve with a large enough effect in the signal ratio in the repeat runs (not every such curve was filed as active); inconclusive = weak or mixed curves, or effect the other way; inactive = no such curve, though single readings can be large or run the other way; the % refers to the signal ratio.
attribute_measured: Potency

Worked cases, Potency given:
COC(=O)C1=C(C)NC(C)=C(C(=O)OC(C)(C)CN(C)CCC(c2ccccc2)c2ccccc2)C1c1cccc([N+](=O)[O-])c1 (stereo unspecified)	6.74 µM (active)
CC(=O)N[C@@H](Cc1ccc(O)cc1)C(=O)O	inactive
COc1cc(C(C)=O)ccc1OCCCN1CCC(c2noc3cc(F)ccc23)CC1	inactive
CCO[Si](C)(CCCOCC1CO1)OCC (stereo unspecified)	inactive
Cc1c[nH]c2ccccc12	inactive

Now for the molecule whose Potency we want.
// sample `O=C(O)/C=C/c1ccc(O)c(O)c1` , its Potency was inactive

====

assay: qHTS assay for small molecule agonists of the antioxidant response element (ARE) signaling pathway (AID 743202); settings: HepG2 ARE-bla reporter, beta-lactamase FRET, 16 h; series mostly up to 73.3 µM; further: on the % scale 0 is the no-effect control and ±100 the full control effect
Records with an inconclusive call do not appear. Activity calls are given as the source filed them. Calls follow the shape of the dose curve; as a rule, active = well fitted activation curve with a large enough effect in the signal ratio in the repeat runs (not every such curve was filed as active); inconclusive = weak or mixed curves, or effect the other way; inactive = no such curve, though single readings can be large or run the other way; the % refers to the signal ratio.
# output must be one of 1 (yes) = active, 0 (no) = inactive

O=C(NC(Cc1cc(=O)[nH]c2ccccc12)C(=O)O)c1ccc(Cl)cc1 (stereo not given)	0 (no)
CCCCCCC(O)CCOC(C)=O (stereo not given)	0 (no)
COC(=O)Nc1nc2ccc(C(=O)C3CC3)cc2[nH]1	0 (no)
CC(C)(C)S	0 (no)

Outcome? `Nc1ccc(F)cc1`
0 (no)

Outcome? CC(=O)OCCC(C)CC(C)(C)C (stereo not given)
0 (no)
